- assay.overview: In vivo pharmacokinetics after single intravenous injection in SD rats (plasma)
- applied.conditions: SD, rat, iv, 5 mg/kg, single IV 5 mg/kg, read-out: Vss
measurement.type: Vd (L/kg)
Numeric answer only, unit L/kg assumed.

Request: Please supply the value of reported Vd for the item "COc1ccc(Cl)cc1C(=O)NCCc1ccc(S(=O)(=O)NC(=O)N[C@H]2CC[C@H](O)CC2)cc1"
Response: 0.119

====

- assay.overview: In vivo pharmacokinetics after single intravenous injection in SD rats (plasma)
- applied.conditions: Sprague-Dawley (SD), rat, iv, 5 mg/kg, single IV 5 mg/kg, read-out: Vss
measurement.type: Vd (L/kg)
Numeric answer only, unit L/kg assumed.

Request: Please supply the value of reported Vd for the item "COc1ccc(C#N)cc1C(=O)NCCc1ccc(S(=O)(=O)NC(=O)NC2CCCCC2)cc1"
Response: 0.193

Request: Please supply the value of reported Vd for the item "O=C(NC1CCCCC1)NS(=O)(=O)c1ccc(CCNC(=O)c2cc(Cl)ccc2O)cc1"
Response: 0.219

Request: Please supply the value of reported Vd for the item "O=C(NC1CCCCC1)NS(=O)(=O)c1ccc(CCNC(=O)c2cc(Cl)ccc2OC(F)(F)F)cc1"
Response: 0.303

Request: Please supply the value of reported Vd for the item "COc1ccc(Cl)cc1C(=O)NCCc1ccc(S(=O)(=O)NC(=O)N[C@@H]2CCCC[C@H]2C#N)cc1"
Response: 3.44

====

Give measured Vd for each item. Keep answers brief.
- assay.overview: In vivo pharmacokinetics after single intravenous injection in SD rats (plasma)
- applied.conditions: Sprague-Dawley (SD), rat, iv, 5 mg/kg, single IV 5 mg/kg, read-out: Vz
Numeric answer only, unit L/kg assumed.

Request: Please supply the value of reported Vd for the item "COc1ccc(Cl)cc1C(=O)NCCc1ccc(S(=O)(=O)NC(=O)N[C@@H]2CCCC[C@H]2C#N)cc1"
Response: 14.6

Request: Please supply the value of reported Vd for the item "O=C(NC1CCCCC1)NS(=O)(=O)c1ccc(CCNC(=O)c2cc(Cl)ccc2OC(F)(F)F)cc1"
Response: 0.51

Request: Please supply the value of reported Vd for the item "COc1ccc(C#N)cc1C(=O)NCCc1ccc(S(=O)(=O)NC(=O)NC2CCCCC2)cc1"
Response: 0.5

Request: Please supply the value of reported Vd for the item "O=C(NC1CCCCC1)NS(=O)(=O)c1ccc(CCNC(=O)c2cc(Cl)ccc2O)cc1"
Response: 1

====

- assay.overview: In vivo pharmacokinetics after single intravenous injection in SD rats (plasma)
- applied.conditions: Sprague-Dawley (SD), rat, single IV 5 mg/kg
Give measured AUC(0-t) for each item. Keep answers brief.
Numeric answer only, unit ng·h/mL assumed.

Request: Please supply the value of reported AUC(0-t) for the item "COc1ccc(C#N)cc1C(=O)NCCc1ccc(S(=O)(=O)NC(=O)NC2CCCCC2)cc1"
Response: 28500

Request: Please supply the value of reported AUC(0-t) for the item "O=C(NC1CCCCC1)NS(=O)(=O)c1ccc(CCNC(=O)c2cc(Cl)ccc2OC(F)(F)F)cc1"
Response: 35700

Request: Please supply the value of reported AUC(0-t) for the item "O=C(NC1CCCCC1)NS(=O)(=O)c1ccc(CCNC(=O)c2cc(Cl)ccc2O)cc1"
Response: 28200

Request: Please supply the value of reported AUC(0-t) for the item "COc1ccc(Cl)cc1C(=O)NCCc1ccc(S(=O)(=O)NC(=O)N[C@@H]2CCCC[C@H]2C#N)cc1"
Response: 4660

====

- assay.overview: In vivo pharmacokinetics after single intravenous injection in SD rats (plasma)
- applied.conditions: rat, single IV 5 mg/kg, read-out: MRT(0-∞)
measurement.type: MRT inf (min)
Numeric answer only, unit min assumed.

Request: Please supply the value of reported MRT inf for the item COc1ccc(Cl)cc1C(=O)NCCc1ccc(S(=O)(=O)NC(=O)N[C@H]2CC[C@H](O)CC2)cc1 [Compound 4]
Response: 18

====

Give measured MRT inf for each item. Keep answers brief.
- assay.overview: In vivo pharmacokinetics after single intravenous injection in SD rats (plasma)
- applied.conditions: Sprague-Dawley (SD), rat, single IV 5 mg/kg, read-out: MRT(0-∞)
Numeric answer only, unit h assumed.

Request: Please supply the value of reported MRT inf for the item O=C(NC1CCCCC1)NS(=O)(=O)c1ccc(CCNC(=O)c2cc(Cl)ccc2OC(F)(F)F)cc1 [Compound 3]
Response: 2.2

Request: Please supply the value of reported MRT inf for the item COc1ccc(Cl)cc1C(=O)NCCc1ccc(S(=O)(=O)NC(=O)N[C@@H]2CCCC[C@H]2C#N)cc1 [Compound 6]
Response: 3.6

Request: Please supply the value of reported MRT inf for the item O=C(NC1CCCCC1)NS(=O)(=O)c1ccc(CCNC(=O)c2cc(Cl)ccc2O)cc1 [Compound 1]
Response: 1.2

Request: Please supply the value of reported MRT inf for the item COc1ccc(C#N)cc1C(=O)NCCc1ccc(S(=O)(=O)NC(=O)NC2CCCCC2)cc1 [Compound 7]
Response: 1.1

====

- assay.overview: In vivo pharmacokinetics after single intravenous injection in SD rats (plasma)
- applied.conditions: Sprague-Dawley (SD), rat, single IV 5 mg/kg
measurement.type: half-life (h)
Numeric answer only, unit h assumed.

Request: Please supply the value of reported half-life for the item "COc1ccc(Cl)cc1C(=O)NCCc1ccc(S(=O)(=O)NC(=O)N[C@@H]2CCCC[C@H]2C#N)cc1"
Response: 5.4

Request: Please supply the value of reported half-life for the item "O=C(NC1CCCCC1)NS(=O)(=O)c1ccc(CCNC(=O)c2cc(Cl)ccc2O)cc1"
Response: 3.9

Request: Please supply the value of reported half-life for the item "COc1ccc(C#N)cc1C(=O)NCCc1ccc(S(=O)(=O)NC(=O)NC2CCCCC2)cc1"
Response: 1.9

Request: Please supply the value of reported half-life for the item "O=C(NC1CCCCC1)NS(=O)(=O)c1ccc(CCNC(=O)c2cc(Cl)ccc2OC(F)(F)F)cc1"
Response: 2.6

====

- system.name: SUR1 receptor (Homo sapiens (Human), UniProt Q09428)
- Sequence (Q09428 whole entry): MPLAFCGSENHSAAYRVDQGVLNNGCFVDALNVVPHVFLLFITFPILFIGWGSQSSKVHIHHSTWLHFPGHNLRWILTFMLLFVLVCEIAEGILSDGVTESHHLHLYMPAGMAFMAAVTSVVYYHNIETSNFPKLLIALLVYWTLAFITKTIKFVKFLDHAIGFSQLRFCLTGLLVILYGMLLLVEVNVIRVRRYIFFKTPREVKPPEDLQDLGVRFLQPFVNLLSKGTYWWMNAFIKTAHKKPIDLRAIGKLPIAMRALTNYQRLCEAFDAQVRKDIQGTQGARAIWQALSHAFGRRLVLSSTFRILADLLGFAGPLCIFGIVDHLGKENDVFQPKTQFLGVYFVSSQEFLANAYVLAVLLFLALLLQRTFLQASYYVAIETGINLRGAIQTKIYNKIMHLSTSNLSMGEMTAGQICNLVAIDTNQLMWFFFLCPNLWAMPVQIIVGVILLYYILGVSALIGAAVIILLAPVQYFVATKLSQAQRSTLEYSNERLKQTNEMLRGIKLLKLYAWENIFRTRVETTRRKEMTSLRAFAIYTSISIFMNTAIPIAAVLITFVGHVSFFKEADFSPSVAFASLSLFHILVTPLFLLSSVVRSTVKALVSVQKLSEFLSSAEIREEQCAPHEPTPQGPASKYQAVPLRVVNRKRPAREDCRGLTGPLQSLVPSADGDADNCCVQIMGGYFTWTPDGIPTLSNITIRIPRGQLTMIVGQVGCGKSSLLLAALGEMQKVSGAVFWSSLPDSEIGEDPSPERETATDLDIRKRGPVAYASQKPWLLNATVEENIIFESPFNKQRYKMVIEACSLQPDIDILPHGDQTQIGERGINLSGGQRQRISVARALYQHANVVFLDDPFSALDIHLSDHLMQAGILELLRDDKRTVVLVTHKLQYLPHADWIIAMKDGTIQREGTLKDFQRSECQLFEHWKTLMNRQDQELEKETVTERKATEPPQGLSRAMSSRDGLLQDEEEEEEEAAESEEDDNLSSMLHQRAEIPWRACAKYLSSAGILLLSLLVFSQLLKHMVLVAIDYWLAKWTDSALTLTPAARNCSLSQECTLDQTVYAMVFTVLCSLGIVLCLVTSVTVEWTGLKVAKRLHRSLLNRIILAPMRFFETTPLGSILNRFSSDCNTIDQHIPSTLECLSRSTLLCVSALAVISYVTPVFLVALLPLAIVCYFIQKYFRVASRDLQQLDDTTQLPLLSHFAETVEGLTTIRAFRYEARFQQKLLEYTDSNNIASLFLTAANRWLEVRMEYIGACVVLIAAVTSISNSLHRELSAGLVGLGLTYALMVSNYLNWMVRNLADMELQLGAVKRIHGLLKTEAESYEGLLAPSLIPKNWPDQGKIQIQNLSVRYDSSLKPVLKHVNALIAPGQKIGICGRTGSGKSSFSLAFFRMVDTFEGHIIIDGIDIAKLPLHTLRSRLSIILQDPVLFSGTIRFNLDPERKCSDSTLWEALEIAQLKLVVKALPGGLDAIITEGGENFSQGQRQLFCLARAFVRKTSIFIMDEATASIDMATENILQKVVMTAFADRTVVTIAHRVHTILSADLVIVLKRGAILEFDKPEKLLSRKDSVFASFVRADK
Give measured IC50 for each item. Keep answers brief.

Request: Write IC50 of "COc1ccc(C#N)cc1C(=O)NCCc1ccc(S(=O)(=O)NC(=O)NC2CCCCC2)cc1" ; system used: SUR1 receptor (Homo sapiens (Human), UniProt Q09428)
Response: 6 nM

Request: Write IC50 of "O=C(NC1CCCCC1)NS(=O)(=O)c1ccc(CCNC(=O)c2cc(Cl)ccc2OC(F)(F)F)cc1" ; system used: SUR1 receptor (Homo sapiens (Human), UniProt Q09428)
Response: 159 nM

Request: Write IC50 of "COc1ccc(Cl)cc1C(=O)NCCc1ccc(S(=O)(=O)NC(=O)N[C@@H]2CCCC[C@H]2C#N)cc1" ; system used: SUR1 receptor (Homo sapiens (Human), UniProt Q09428)
Response: 37 nM

Request: Write IC50 of Cc1cnc(C(=O)NCCc2ccc(S(=O)(=O)NC(=O)NC3CCCCC3)cc2)cn1 [Glipizide, reference compound] ; system used: SUR1 receptor (Homo sapiens (Human), UniProt Q09428)
Response: 230 nM

====

- assay.overview: In vivo pharmacokinetics after single intravenous injection in SD rats (plasma)
- applied.conditions: Sprague-Dawley (SD), rat, single IV 5 mg/kg
measurement.type: Cmax (ng/mL)
Numeric answer only, unit ng/mL assumed.

Request: Please supply the value of reported Cmax for the item "COc1ccc(Cl)cc1C(=O)NCCc1ccc(S(=O)(=O)NC(=O)N[C@@H]2CCCC[C@H]2C#N)cc1"
Response: 11800

Request: Please supply the value of reported Cmax for the item "O=C(NC1CCCCC1)NS(=O)(=O)c1ccc(CCNC(=O)c2cc(Cl)ccc2OC(F)(F)F)cc1"
Response: 32800

Request: Please supply the value of reported Cmax for the item "O=C(NC1CCCCC1)NS(=O)(=O)c1ccc(CCNC(=O)c2cc(Cl)ccc2O)cc1"
Response: 65000

Request: Please supply the value of reported Cmax for the item "COc1ccc(C#N)cc1C(=O)NCCc1ccc(S(=O)(=O)NC(=O)NC2CCCCC2)cc1"
Response: 42400

Where these numbers come from: patent US20230348371A1
